B1: MCOLN1 (parent)
chain: EEEDLRRRLKYFFMSPCDKFRAKG

Variants of: B1
Protocol Summary: protein stability index of a GFP-peptide fusion (GPS, HEK-293T) (PSI 1-6); higher = more stable;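 also: lentivirally expressed fusions sorted by FACS into six bins by GFP to DsRed ratio, PSI derived from sequencing read proportions per bin multiplied by bin number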
Experimental Context: c terminus: a fixed tail appended
Criterion: protein stability index meeting or surpassing 2. Met: rule met. Not met: rule not met.

- Mut: "Y11V"
  Cat: "rule met"

# ---- query variant ----
QUERY: Textbook exercise: given the entry `M14C` , state whether its protein stability index is greater than or equal to 2.
RESULT: rule met
